Biological target: SMARCA2 (Homo sapiens)
Construct: endogenous in cells; host or cells: RKO cells (CRL-2577, ATCC)
Sequence (P51531 whole entry): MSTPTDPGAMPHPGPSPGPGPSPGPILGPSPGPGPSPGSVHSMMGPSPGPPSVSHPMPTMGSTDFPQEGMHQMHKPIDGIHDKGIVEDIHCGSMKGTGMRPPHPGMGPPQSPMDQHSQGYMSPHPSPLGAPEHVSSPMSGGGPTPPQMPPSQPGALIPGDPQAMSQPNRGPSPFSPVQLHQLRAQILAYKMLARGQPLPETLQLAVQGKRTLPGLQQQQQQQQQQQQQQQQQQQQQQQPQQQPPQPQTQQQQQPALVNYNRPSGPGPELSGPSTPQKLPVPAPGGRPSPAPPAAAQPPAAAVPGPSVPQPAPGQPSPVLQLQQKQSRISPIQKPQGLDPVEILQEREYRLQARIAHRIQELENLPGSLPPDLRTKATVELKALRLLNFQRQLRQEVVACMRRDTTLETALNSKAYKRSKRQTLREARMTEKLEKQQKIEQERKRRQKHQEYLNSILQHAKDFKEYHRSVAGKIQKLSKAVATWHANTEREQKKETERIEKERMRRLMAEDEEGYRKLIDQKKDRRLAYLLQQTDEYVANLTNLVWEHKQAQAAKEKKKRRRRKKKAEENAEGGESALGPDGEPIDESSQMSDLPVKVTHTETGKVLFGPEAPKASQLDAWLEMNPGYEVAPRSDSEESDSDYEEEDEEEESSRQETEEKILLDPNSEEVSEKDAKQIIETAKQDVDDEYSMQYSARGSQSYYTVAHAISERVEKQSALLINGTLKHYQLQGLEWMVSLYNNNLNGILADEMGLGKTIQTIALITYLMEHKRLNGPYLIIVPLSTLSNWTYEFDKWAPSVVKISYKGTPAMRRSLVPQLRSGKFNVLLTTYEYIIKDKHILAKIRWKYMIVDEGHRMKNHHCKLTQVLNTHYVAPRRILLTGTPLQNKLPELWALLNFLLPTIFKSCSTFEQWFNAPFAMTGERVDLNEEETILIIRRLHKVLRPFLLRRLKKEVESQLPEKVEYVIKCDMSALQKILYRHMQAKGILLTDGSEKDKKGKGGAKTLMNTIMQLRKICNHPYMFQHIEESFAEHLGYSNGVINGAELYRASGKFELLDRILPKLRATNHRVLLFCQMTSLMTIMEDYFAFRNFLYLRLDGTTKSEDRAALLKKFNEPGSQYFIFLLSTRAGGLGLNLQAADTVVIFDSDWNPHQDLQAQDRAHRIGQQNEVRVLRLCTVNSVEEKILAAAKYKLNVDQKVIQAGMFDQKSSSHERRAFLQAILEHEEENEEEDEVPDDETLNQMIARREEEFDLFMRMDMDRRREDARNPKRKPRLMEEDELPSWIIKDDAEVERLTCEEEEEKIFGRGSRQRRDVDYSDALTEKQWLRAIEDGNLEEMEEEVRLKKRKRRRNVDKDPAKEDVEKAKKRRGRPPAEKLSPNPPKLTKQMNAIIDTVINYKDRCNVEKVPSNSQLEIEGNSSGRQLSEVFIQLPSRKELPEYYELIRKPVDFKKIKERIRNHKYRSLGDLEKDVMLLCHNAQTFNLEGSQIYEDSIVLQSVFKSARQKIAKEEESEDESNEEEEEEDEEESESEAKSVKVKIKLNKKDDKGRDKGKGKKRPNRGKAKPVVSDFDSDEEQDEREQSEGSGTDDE
Test: SMARCA2 degradation analysis by imaging in RKO cells (DC50 A2)
Assay type: cell-based
Details: tables 69, 70, 73, 76-78
Description: Determination of SMARCA2 and SMARCA4 Degradation (DC50 A2 and A4 [nM]) Protein Degradation Assays for SMARCA2 and SMARCA4 For degradation analysis by imaging, 1250 RKO cells (CRL-2577, ATCC) per well were seeded into 60 μL DMEM (Sigma Aldrich) supplemented with 10% FBS (Hyclone) in 384-well flat bottom plates (CellCarrier Ultra, Perkin Elmer) and incubated at 37° C. and 5% CO2 in a humidified atmosphere overnight. […]

{"compound": "Cc1ncsc1-c1ccc([C@H](COCCN2CCC(c3ccc4c(c3)n(C3CCCC3)c3nc(=O)c5c(Br)cccc5n43)CC2)NC(=O)[C@@H]2C[C@@H](O)CN2C(=O)[C@@H](NC(=O)C2(N(C)C)CC2)C(C)(C)C)cc1 [Compound 42aj]", "DC50 (nM)": 4}
{"compound": "Cc1ncsc1-c1ccc([C@@H](CC[C@H](C)CCN2CCC(c3ccc4c(c3)n(C3CCCC3)c3nc(=O)c5c(Br)cccc5n43)CC2)NC(=O)[C@@H]2C[C@@H](O)CN2C(=O)[C@@H](NC(=O)C2(F)CC2)C(C)(C)C)cc1 [Compound 42at]", "DC50 (nM)": 57}
{"compound": "Cc1ncsc1-c1ccc([C@H](CO[C@H](C)CN2CCC(c3ccc4c(c3)n(C3C[C@H](C)[C@@H](C)C3)c3nc(=O)c5c(Br)cccc5n43)CC2)NC(=O)[C@@H]2C[C@@H](O)CN2C(=O)[C@@H](NC(=O)C2(F)CC2)C(C)(C)C)cc1 [Compound 42p]", "DC50 (nM)": 13}
{"compound": "Cc1ncsc1-c1ccc([C@H](CCCCN(C)C2CCC(c3ccc4c(c3)n(C3CCCC3)c3nc(=O)c5c(Br)cccc5n43)CC2)NC(=O)[C@@H]2C[C@@H](O)CN2C(=O)[C@@H](NC(=O)C2(F)CC2)C(C)(C)C)cc1 (stereo partly shown) [Compound 42ax]", "DC50 (nM)": 7}

---

The entries below are paired with their reported DC50.
Biological target: SMARCA2 (Homo sapiens)
Construct: endogenous in cells; host or cells: RKO cells (CRL-2577, ATCC)
Experiment: SMARCA2 degradation analysis by imaging in RKO cells (DC50 A2)
Assay type: cell-based
Details: tables 69, 70, 73, 76-78
metric: DC50 (nM)

{"molecule": "Cc1ncsc1-c1ccc([C@H](COC(C)(C)CN2CCC(c3ccc4c(c3)n(C3CCCC3)c3nc(=O)c5c(Br)cccc5n43)CC2)NC(=O)[C@@H]2C[C@@H](O)CN2C(=O)[C@@H](NC(=O)C2(F)CC2)C(C)(C)C)cc1 [Compound 42l]", "assayedSystem": "SMARCA2 (Homo sapiens)", "resultUnits": "nM", "quantitativeResult": 3}
{"molecule": "Cc1ncsc1-c1ccc([C@H](CCCCCN2CCN(c3ccc4c(c3)n(C3CCCC3)c3nc(=O)c5c(Br)cccc5n43)[C@H](C)C2)NC(=O)[C@@H]2C[C@@H](O)CN2C(=O)[C@@H](NC(=O)C2(F)CC2)C(C)(C)C)cc1 [Compound 42aq]", "assayedSystem": "SMARCA2 (Homo sapiens)", "resultUnits": "nM", "quantitativeResult": 1}
{"molecule": "COc1cc2c(cc1C1CCN(CCOC[C@H](NC(=O)[C@@H]3C[C@@H](O)CN3C(=O)[C@@H](NC(=O)C3(F)CC3)C(C)(C)C)c3ccc(-c4scnc4C)cc3)CC1)n(C1CCCC1)c1nc(=O)c3c(Br)cccc3n21 [Compound 42ay]", "assayedSystem": "SMARCA2 (Homo sapiens)", "resultUnits": "nM", "quantitativeResult": 15}
{"molecule": "CCn1c2cc(C3CCN(CCCCCOC[C@H](NC(=O)[C@@H]4C[C@@H](O)CN4C(=O)[C@@H](NC(=O)C4(N(C)C)CC4)C(C)(C)C)c4ccc(-c5scnc5C)cc4)CC3)c(OCCOCCOC)cc2n2c3cccc(Br)c3c(=O)nc12 [Compound 42ag]", "assayedSystem": "SMARCA2 (Homo sapiens)", "resultUnits": "nM", "quantitativeResult": 9}

The reported measurements were obtained from patent US20250049929A1.
